target: UniProt P31651
pIC50: −log10 of the molar value.
Recorded Endpoint: pIC50

Compound	Observed Measurement
CN(CCC=C(c1ccccc1)c1ccccc1)C(CO)C(=O)NCc1ccccc1Cl (stereo not drawn)	4.89
Cc1ccsc1C(=CCCN(C)[C@H]1CCCC[C@H]1C(=O)O)c1sccc1C	4.68
CN(CCC=C(c1ccccc1)c1ccccc1)C(CN)C(=O)NCc1ccccc1Cl (stereo not drawn)	5.22

---

molecular target: GABA transporter 2 (Mus musculus) (UniProt P31651); assay: Inhibition of mouse GAT2 transfected in HEK293 cells assessed as reduction in [3H]-GABA uptake by measuring residual activity at 100 uM preincubated for 25 mins followed by [3H]-GABA addition and measured after 10 mins by liquid scintillation counting analysis relative to control; type: cell-based; conditions: time 35.0 min
Sequence (P31651 whole entry): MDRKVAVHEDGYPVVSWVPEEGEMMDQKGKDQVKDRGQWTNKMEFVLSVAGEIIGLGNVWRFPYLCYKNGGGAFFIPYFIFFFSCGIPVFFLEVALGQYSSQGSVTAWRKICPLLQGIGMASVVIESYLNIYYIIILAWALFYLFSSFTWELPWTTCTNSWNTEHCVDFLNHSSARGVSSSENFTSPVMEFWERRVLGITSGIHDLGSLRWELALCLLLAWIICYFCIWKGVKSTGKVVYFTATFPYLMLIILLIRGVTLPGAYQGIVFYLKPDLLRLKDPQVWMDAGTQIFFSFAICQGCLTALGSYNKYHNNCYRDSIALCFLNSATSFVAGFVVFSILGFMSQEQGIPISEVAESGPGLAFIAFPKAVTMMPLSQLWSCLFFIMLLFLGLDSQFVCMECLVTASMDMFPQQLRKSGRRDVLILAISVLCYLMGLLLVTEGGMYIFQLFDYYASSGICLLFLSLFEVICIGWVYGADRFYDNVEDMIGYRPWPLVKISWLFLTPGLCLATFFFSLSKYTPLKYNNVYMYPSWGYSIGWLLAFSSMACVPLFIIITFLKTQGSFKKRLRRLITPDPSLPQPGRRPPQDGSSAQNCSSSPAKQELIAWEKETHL
Recorded Endpoint: Activity (%)

Compound	Measurement Target	Unit Name	Observed Measurement
CN(CCOCCN1c2ccccc2Sc2ccccc21)C(CCO)C(=O)NCc1ccc(Cl)cc1 (stereo not given)	GABA transporter 2 (Mus musculus) (UniProt P31651)	%	55
O=C(NC1CCN(C(c2ccccc2)c2ccccc2)CC1)C1CC2c3ccccc3NC2CN1 (stereo not given)	GABA transporter 2 (Mus musculus) (UniProt P31651)	%	57
CN(CCC=C(c1ccccc1)c1ccccc1)C(=O)C1Cc2c([nH]c3ccccc23)CN1 (stereo not given)	GABA transporter 2 (Mus musculus) (UniProt P31651)	%	55
CN(CC/C=C/c1ccccc1-c1ccc(Cl)cc1Cl)C(CCN)C(=O)NCc1ccccc1 (stereo not given)	GABA transporter 2 (Mus musculus) (UniProt P31651)	%	18
CN(CC/C=C/c1ccccc1-c1ccc(Cl)cc1Cl)C(CCO)C(=O)NCc1ccccc1 (stereo not given)	GABA transporter 2 (Mus musculus) (UniProt P31651)	%	13

---

The reader will find reported inhibition values listed item by item below.
biological target: Acetylcholinesterase (Electrophorus electricus) (UniProt O42275); experiment: Inhibition of electric eel AChE using acetylthiocholine iodide as substrate at 10 uM preincubated for 5 mins followed by substrate addition and measured after 5 mins by DTNB reagent based Ellman's method relative to control; details: time 10.0 min
Sequence (O42275 24-633 limits assumed): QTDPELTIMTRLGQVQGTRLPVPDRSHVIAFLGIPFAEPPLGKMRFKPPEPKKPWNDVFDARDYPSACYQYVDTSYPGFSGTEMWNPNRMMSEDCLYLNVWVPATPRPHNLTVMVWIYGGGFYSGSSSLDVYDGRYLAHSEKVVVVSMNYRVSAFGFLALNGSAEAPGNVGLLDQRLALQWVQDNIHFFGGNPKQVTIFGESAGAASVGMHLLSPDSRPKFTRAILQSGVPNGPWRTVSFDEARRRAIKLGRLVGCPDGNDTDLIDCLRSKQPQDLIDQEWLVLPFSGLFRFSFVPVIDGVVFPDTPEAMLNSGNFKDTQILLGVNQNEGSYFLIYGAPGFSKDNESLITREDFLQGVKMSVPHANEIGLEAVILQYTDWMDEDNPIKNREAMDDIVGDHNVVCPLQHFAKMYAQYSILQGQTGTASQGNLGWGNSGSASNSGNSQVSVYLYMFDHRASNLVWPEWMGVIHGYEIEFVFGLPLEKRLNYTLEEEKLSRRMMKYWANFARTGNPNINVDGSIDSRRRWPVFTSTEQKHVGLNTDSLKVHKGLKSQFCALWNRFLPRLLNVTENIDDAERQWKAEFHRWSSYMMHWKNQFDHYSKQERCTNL

Compound	inhibition
CN(CC/C=C/c1ccccc1-c1ccccc1)C(CO)C(=O)NCc1ccc(F)cc1 (stereo not given)	< 10%
CC(O)CC(C(=O)NCc1ccccc1Cl)N(C)CC/C=C/c1ccccc1-c1ccccc1 (racemic; form 2)	< 10%
Cc1ccc(CNC(=O)C(CCO)N(C)CCC=C2c3ccccc3C=Cc3ccccc32)cc1 (stereo not given)	< 10%
CN(CCOCCN1c2ccccc2Sc2ccccc21)C(CCN)C(=O)NCc1ccc(Cl)cc1 (stereo not given)	42%
Cc1ccc(CNC(=O)C(CCO)N(C)CCC=C2c3ccccc3-c3ccccc32)cc1 (stereo not given)	< 10%

---

biological target: Sodium- and chloride-dependent GABA transporter 1 (Mus musculus, UniProt P31648); assay: Inhibition of mouse GAT1 transfected in HEK293 cells assessed as reduction in [3H]-GABA uptake preincubated for 25 mins followed by [3H]-GABA addition and measured after 4 mins by liquid scintillation counting analysis; assay type: cell-based; details: read-out: pIC50 (converted)

Molecule	Measurement Target	Unit Name	IC50
Cc1ccc(CNC(=O)C(CCO)N(C)CCOCCN2c3ccccc3Sc3ccccc32)cc1 (centres undefined)	Sodium- and chloride-dependent GABA transporter 1 (Mus musculus, UniProt P31648)	µM	20.4
CC(=O)NCCC(C(=O)NCc1ccc(C)cc1)N(C)CCOCCN1c2ccccc2Sc2ccccc21 (centres undefined)	Sodium- and chloride-dependent GABA transporter 1 (Mus musculus, UniProt P31648)	µM	22.9
CN(CCOCCN1c2ccccc2Sc2ccccc21)C(CCO)C(=O)NCc1ccc(F)cc1 (centres undefined)	Sodium- and chloride-dependent GABA transporter 1 (Mus musculus, UniProt P31648)	µM	26.9
CC(=O)NCCC(C(=O)NCc1ccc(F)cc1)N(C)CCOCCN1c2ccccc2Sc2ccccc21 (centres undefined)	Sodium- and chloride-dependent GABA transporter 1 (Mus musculus, UniProt P31648)	µM	22.9
CC(O)CC(C(=O)NCc1ccccc1)N(C)CC/C=C/c1ccccc1-c1ccccc1 (racemic; form 2)	Sodium- and chloride-dependent GABA transporter 1 (Mus musculus, UniProt P31648)	µM	44.7
CN(CCOCCN1c2ccccc2Sc2ccccc21)C(CCN)C(=O)NCc1ccccc1 (centres undefined)	Sodium- and chloride-dependent GABA transporter 1 (Mus musculus, UniProt P31648)	µM	15.8
CN(CCOCCN1c2ccccc2Sc2ccccc21)C(CCN)C(=O)NCc1ccc(Cl)cc1 (centres undefined)	Sodium- and chloride-dependent GABA transporter 1 (Mus musculus, UniProt P31648)	µM	9.77
CC(=O)NCCC(C(=O)NCc1ccccc1)N(C)CCOCCN1c2ccccc2Sc2ccccc21 (centres undefined)	Sodium- and chloride-dependent GABA transporter 1 (Mus musculus, UniProt P31648)	µM	38
CN(CCOCCN1c2ccccc2Sc2ccccc21)C(CCN)C(=O)NCc1ccccc1Cl (centres undefined)	Sodium- and chloride-dependent GABA transporter 1 (Mus musculus, UniProt P31648)	µM	12.6
